System: SK-MEL-5 melanoma
Experiment: NCI-60 one-dose screen, 48 h (100 = growth as untreated, 0 = no growth, -100 = all killed)
Conditions: 10 µM unless noted
Experimental: Growth inhibition of the SK-MEL-5 human tumor cell line is measured as a screen for anti-cancer activity. Cells are grown in 96 well plates and exposed to the test compound for 48 hours. Compounds are tested at a single concentration, which is 10^-5 M for most compounds. The reported endpoint is percent growth (GI% or GIPRCNT), where numbers from 0 - 100% represent growth inhibition, and numbers from -100% - 0 represent cell death. For example, a value of 40 represents 60% growth inhibition. […]
The panel holds about 83,000 compounds, 20% with a hit somewhere; the sample as a whole holds those more often.
outcome_measure: growth (%)
Write the number in % without appending the unit.

Record excerpt, results attached:
INSERT INTO measurements (compound, outcome_measure, assay_result) VALUES
  ('CC(=O)Nc1ccc(NC(=O)Nc2cccc(-c3nc(-c4ccc(NC(=O)c5cccnc5)cc4Cl)no3)c2)cc1C(F)(F)F', 'growth', -88.2),
  ('CCOC(=O)CC(=O)CSC1=NC2C(NN1)N(C)C(=O)N2C (centres undefined)', 'growth', 99.6),
  ('CC(=O)Nc1ccc(C)c(Nc2cc(-c3ccc(-n4cccn4)cc3)[nH]n2)c1', 'growth', 53.6),
  ('C#C[C@]1(O)CC[C@H]2[C@@H]3CC=C4c5sc(C6CC6)nc5CC[C@]4(C)[C@H]3CC[C@@]21C', 'growth', 93.5),
  ('Nc1nc(N)c2c(n1)NC(c1ccc(Cl)cc1)CC(c1ccc(Nc3nc(NCCO)nc(Nc4ccc(Cl)cc4)n3)cc1)=N2 (centres undefined)', 'growth', 48.4);

Input: Give its growth value. Item: `O=C1c2c(c3c4cc(O)ccc4oc3c3[nH]c4ccccc4c23)C(=O)N1O`
Output: -76.1

Input: Again, but for `COc1cc(O)c2c(c1)[C@H]1O[C@@H]1C[C@H](O)[C@H](O)C(=O)/C=C\C[C@H](C)OC2=O`
Output: 7.59

Input: Again, but for `CNC(=O)c1cc(Oc2ccc3nc(NC(=O)c4cc(C)cc(C)c4)sc3c2)ccn1`
Output: 77.4

Input: Again, but for `Cn1c2ccccc2c2c3c(c4c5ccc(Br)cc5oc4c21)C(=O)N(O)C3=O`
Output: 75.6

---

Tested on: NCI-H226 lung
Assay: NCI-60 one-dose screen, 48 h
Details: 10 µM unless noted
Procedure: Growth inhibition of the NCI-H226 human Non-Small Cell Lung tumor cell line is measured as a screen for anti-cancer activity. Cells are grown in 96 well plates and exposed to the test compound for 48 hours. Compounds are tested at a single concentration, which is 10^-5 M for most compounds. The reported endpoint is percent growth (GI% or GIPRCNT), where numbers from 0 - 100% represent growth inhibition, and numbers from -100% - 0 represent cell death. […]
The panel holds about 83,000 compounds, 20% with a hit somewhere; the sample as a whole holds those more often. Active and inactive are the calls of the source. How the source made its calls: active means growth percent below 10; inactive means the rest.
The categories you may choose from are YES = active, NO = inactive

Below, 10 molecules whose answers are already recorded.
INSERT INTO assay_data (molecule, category) VALUES
  ('COc1cc(C2=NN(C(C)=O)C(c3ccc(N4CCOCC4)cc3)C2)cc(OC)c1OC (stereo not drawn)', 'NO'),
  ('COc1ccc(-c2nnc(SCc3ccc(O)c4ncccc34)n2-c2ccccc2)cc1', 'NO'),
  ('C#C[C@]1(O)CC[C@H]2[C@@H]3CC=C4c5sc(Nc6ccc(OC)nc6)nc5CC[C@]4(C)[C@H]3CC[C@@]21C', 'NO'),
  ('O=C(Nc1cccc(-c2nc(-c3ccc(NC(=O)c4cccnc4)cc3Cl)no2)c1)Nc1ccc(NC(=O)C2CC2)c(C(F)(F)F)c1', 'YES'),
  ('Clc1ccc(-c2csc(N/N=C/c3nc4ccccc4n3C3CC3)n2)cc1', 'NO'),
  ('O=c1[nH]c2cc(Cl)ccc2n1C1CCN(c2ccc3nnc(Cl)n3n2)CC1', 'NO'),
  ('CCCCCCNC(=O)Oc1ccc(/C(=C(/C)c2ccc(Cl)cc2)c2ccc(OCCN3CCCC3)cc2)cc1', 'NO'),
  ('COC(=O)[C@@]1(C)CC[C@]2(C)CC[C@]3(C)C(=CC(=O)[C@@H]4[C@@]5(C)Cc6c(n(CC#CCN7CCN(C)CC7)c7ccccc67)C(C)(C)[C@@H]5CC[C@]43C)[C@@H]2C1', 'NO'),
  ('O=C1c2c(c3c4cccnc4[nH]c3c3ccc4ccccc4c23)C(=O)N1CCN1CCCCC1', 'NO'),
  ('CC(C)(C)CC(C)(C)n1nnnc1C(Nc1ccccc1)c1cc2cccc3ccc4cccc1c4c32 (stereo not drawn)', 'NO');

Input: Test call for this molecule, please: CC1COc2c(N3CCN(C)CC3)c(F)cc3c(=O)c(C(=O)N/N=C/c4cc[nH]c4)cn1c23 (stereo not drawn)
Output: NO

Input: Again, but for `CC[C@]12C=CCN3CC[C@]4(C(=C(C(=O)OC)C1)Nc1cc5c(cc14)[C@@H]1[C@H](O5)[C@@H](O)[C@@]4(CC)CC(C(=O)OC)=C5Nc6cc(OC)ccc6[C@@]56CCN1[C@@H]46)[C@@H]32`
Output: YES

Input: Again, but for `O=C1Nc2ccc(Br)cc2/C1=N\c1nnc(-c2ccc(Cl)cc2)o1`
Output: NO

Input: Again, but for `COc1cc(/C=C2\SC(=O)NC2=O)ccc1OCC(=O)Nc1ccc(C(=O)/C=C/c2cc3ccccc3nc2Cl)cc1`
Output: NO

Input: Again, but for `CN(c1ccc(Cl)cc1)S(=O)(=O)c1ccc(-c2cnc(C3CC3)o2)cc1`
Output: NO

Input: Again, but for `O=C1[C@@H]2Cc3c([nH]c4ccccc34)[C@H](c3c(Cl)cccc3Cl)N2C(=O)CN1C1CCN(Cc2c(F)cccc2F)CC1`
Output: NO

Input: Again, but for `O=C(Nc1ccc(-c2nc(-c3cccc(O)c3)c(-c3ccnc(Br)c3)[nH]2)cc1)c1ccccc1`
Output: NO

Input: Again, but for `NS(=O)(=O)c1ccc(Nc2nc(N/N=C/c3ccc([N+](=O)[O-])cc3)nc(Nc3ccccc3)n2)cc1`
Output: NO

Input: Again, but for `C=C(C)C(=O)O[C@H]1C[C@@]2(C)OC(=CC2=O)/C(CO)=C\[C@H]2OC(=O)C(=C)[C@H]12`
Output: YES

Input: Again, but for `Cc1cn(-c2cc(NC(=O)c3cncc(C#Cc4cnc5ccc(OCCCS(C)(=O)=O)nn45)c3)cc(C(F)(F)F)c2)cn1`
Output: YES

Input: Again, but for `C=C(C)C(=O)O[C@H]1C[C@@]2(C)OC(=CC2=O)[C@H](C)[C@H](O)[C@H]2OC(=O)C(=C)[C@@H]21`
Output: NO

Input: Again, but for `C[C@H]1[C@H](C)CC[C@]2(COC(=O)c3cccnc3)CC[C@]3(C)C(=CC[C@@H]4[C@@]5(C)CCCNC(C)(C)[C@@H]5CC[C@]43C)[C@H]12`
Output: NO

Input: Again, but for CC(C)=CCC[C@](C)(O)[C@H]1CC[C@]2(C)[C@@H]1CC[C@@H]1[C@@]3(C)CCC(NC(=O)c4ccccc4C(=O)O)C(C)(C)[C@@H]3CC[C@]12C (stereo partly drawn)
Output: NO

Input: Again, but for `NS(=O)(=O)c1ccc(Nc2nc(N/N=C/c3ccc(C(F)(F)F)cc3)nc(Nc3ccccc3)n2)cc1`
Output: NO

Input: Again, but for `Fc1ccc(-c2cc3nc(C(Cl)Cl)nc(-c4cccs4)n3n2)cc1`
Output: NO
